# subject-of-test: BCRP (hBCRP) (Homo sapiens, UniProt Q9UNQ0)
# Construct: expressed in transfected cells; host or cells: MDCKII (canine kidney) cells, canine P-gp knockout, transfected with BCRP
# Sequence (Q9UNQ0 whole entry): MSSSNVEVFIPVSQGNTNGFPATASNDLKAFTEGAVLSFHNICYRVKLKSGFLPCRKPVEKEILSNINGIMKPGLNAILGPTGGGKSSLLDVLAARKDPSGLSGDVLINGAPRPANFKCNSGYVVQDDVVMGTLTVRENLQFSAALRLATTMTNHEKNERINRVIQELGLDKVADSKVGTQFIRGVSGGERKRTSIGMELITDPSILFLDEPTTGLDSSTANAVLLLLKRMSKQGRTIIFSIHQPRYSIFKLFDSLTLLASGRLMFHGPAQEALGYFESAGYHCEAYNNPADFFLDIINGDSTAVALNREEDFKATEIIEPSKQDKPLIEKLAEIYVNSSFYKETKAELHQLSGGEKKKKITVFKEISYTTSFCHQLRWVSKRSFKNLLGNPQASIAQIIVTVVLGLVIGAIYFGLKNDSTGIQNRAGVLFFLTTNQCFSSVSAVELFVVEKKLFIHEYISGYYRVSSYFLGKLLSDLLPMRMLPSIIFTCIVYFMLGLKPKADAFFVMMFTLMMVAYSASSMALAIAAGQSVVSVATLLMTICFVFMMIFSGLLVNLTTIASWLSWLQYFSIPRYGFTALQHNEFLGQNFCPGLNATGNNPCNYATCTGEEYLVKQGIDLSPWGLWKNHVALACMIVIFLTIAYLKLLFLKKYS
# protocol-text: Efflux ratio in BCRP transfected MDCKII canine P-gp knockout cells
# Format: in vitro ADME
# particulars: Papp(B−A)/Papp(A−B), read-out: Efflux ratio MDCKII-hBCRP knock-in,canine pg-P KO
observed-property: efflux ratio at 2 h, 1 μM

[P] CSc1ccc(Nc2c3c(cc(=O)n2C)CCN(OCCO)C3=O)c(F)c1
[Q] Cn1c(Nc2ccc(Br)cc2F)c2c(c(F)c1=O)CCN(OCCO)C2=O
Lab notebook, comparison: P versus Q , higher efflux ratio at 2 h, 1 μM goes to which? Record your answer as the label of the chosen record.
P

[a] CCc1ccc(Nc2c3c(cc(=O)n2C)CCN(OCCO)C3=O)c(Cl)c1
[b] C[C@H](O)CON1CCc2cc(=O)n(C)c(Nc3ccc(Br)cc3F)c2C1=O
[c] CON1CCc2cc(=O)n(C)c(Nc3ccc(I)cc3F)c2C1=O
[d] Cn1c(Nc2ccc(I)cc2Cl)c2c(cc1=O)CCN(OCCO)C2=O
Thanks in advance: please rank these 4 entries by efflux ratio at 2 h, 1 μM, highest to lowest. A ranking is expressed here by listing the labels in the requested order.
b, d, a, c
